Dear all, this message contains pIC50 results, target or system Cytochrome P450 3A4 (Homo sapiens, UniProt P08684).
Just the number, please; pIC50 means minus log10 of the concentration in mol/L.

Use these answered entries as a reference point.
• CCCNC(=O)c1ccc2cc(C(O)(c3cnc[nH]3)C(C)C)ccc2c1 (racemic) = 5.47
• CC(=O)c1ccc2cc(C(O)(c3c[nH]cn3)C(C)C)ccc2c1 (racemic) = 5.85
• CC(C)C(O)(c1ccc2cc3c(cc2c1)CN(C)C3=O)c1c[nH]cn1 (racemic) = 5.27
• COC(=O)c1ccc2cc(C(O)(c3c[nH]cn3)C(C)C)ccc2c1 (racemic) = 5.85

Now, please, on to the next compound.
# input Enter recorded pIC50 with Cytochrome P450 3A4 (Homo sapiens, UniProt P08684) for CC(C)C(O)(c1ccc2cc(C(N)=O)ccc2c1)c1c[nH]cn1 (racemic) here.
# Sequence (P08684 whole entry): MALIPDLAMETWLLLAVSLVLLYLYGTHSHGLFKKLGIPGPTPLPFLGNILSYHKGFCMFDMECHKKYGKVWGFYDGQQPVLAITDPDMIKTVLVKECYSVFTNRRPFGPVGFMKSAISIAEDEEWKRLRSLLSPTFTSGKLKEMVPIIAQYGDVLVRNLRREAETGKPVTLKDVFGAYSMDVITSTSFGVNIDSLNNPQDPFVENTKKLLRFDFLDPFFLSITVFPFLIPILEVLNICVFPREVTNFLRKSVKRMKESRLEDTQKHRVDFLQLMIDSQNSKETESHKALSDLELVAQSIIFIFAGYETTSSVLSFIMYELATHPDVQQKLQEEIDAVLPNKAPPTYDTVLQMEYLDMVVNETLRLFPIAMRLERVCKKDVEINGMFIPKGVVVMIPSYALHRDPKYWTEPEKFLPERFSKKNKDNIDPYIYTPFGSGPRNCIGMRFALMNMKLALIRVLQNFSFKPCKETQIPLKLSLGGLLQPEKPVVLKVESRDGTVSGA
# output 5.43
